Experiment: Inhibition of Saccharomyces sp. alpha-glucosidase
pIC50: −log10 of the molar value.
quantityName: pIC50

molecule="CC(C)CC[C@@H](O)[C@@H](C)[C@H]1CC[C@H]2[C@@H]3CC=C4C[C@@H](O)CC[C@]4(C)[C@H]3CC[C@]12C [22(R)-HYDROXYCHOLESTEROL]" censoringoperator== result=4.00
molecule=COc1ccc2c(c1)CCc1ccc(cc1)Oc1cc(ccc1OC)CCc1ccc-2c(OC)c1 censoringoperator== result=4.31
molecule=COc1cc2ccc1-c1ccccc1CCc1ccc(cc1)Oc1cccc(c1)CC2 censoringoperator== result=4.17
molecule=Oc1cc2ccc1-c1ccccc1CCc1ccc(cc1)Oc1cccc(c1)CC2 censoringoperator== result=4.72
molecule=O=C1c2ccccc2C(=O)N1c1ccccc1CCc1ccccc1 censoringoperator== result=4.79
molecule=O=c1c(-c2ccc(O)cc2)coc2cc(O)cc(O)c12 censoringoperator== result=4.00
molecule=COc1ccc2c(c1)CCc1ccc(cc1)Oc1cccc(c1)CCc1ccc-2c(OC)c1 censoringoperator=< result=4.52
molecule=Oc1ccc2cc1Oc1ccc(cc1)CCc1ccccc1-c1ccc(cc1O)CC2 censoringoperator== result=5.07
molecule=Oc1ccc2c(c1)CCc1ccc(cc1)Oc1cc(ccc1O)CCc1ccc-2c(O)c1 censoringoperator== result=5.00
molecule=COc1ccc2cc1Oc1ccc(cc1)CCc1ccccc1-c1ccc(cc1)CC2 censoringoperator=< result=4.00
molecule=O=C(O)Cc1cccc(OCCCN(Cc2cccc(C(F)(F)F)c2Cl)CC(c2ccccc2)c2ccccc2)c1 censoringoperator== result=5.32
molecule=Oc1ccc2c(c1)CCc1ccc(cc1)Oc1cccc(c1)CCc1ccc-2c(O)c1 censoringoperator== result=5.29
molecule=OC[C@H]1NC[C@H](O)[C@@H](O)[C@@H]1O censoringoperator== result=3.60
molecule=Oc1ccc2cc1Oc1ccc(cc1)CCc1ccccc1-c1ccc(cc1)CC2 censoringoperator== result=4.82
molecule=COc1ccc2c(c1)CCc1ccc(cc1)Oc1cc(ccc1OC)CCc1ccc-2cc1 censoringoperator== result=4.40
molecule=Oc1ccc2c(c1)CCc1ccc(cc1)Oc1cc(ccc1O)CCc1ccc-2cc1 censoringoperator== result=5.31
molecule=COc1ccc2cc1Oc1ccc(cc1)CCc1ccccc1-c1ccc(cc1OC)CC2 censoringoperator== result=4.38
molecule=CCCCCCc1ccccc1N1C(=O)c2ccccc2C1=O censoringoperator== result=4.61
molecule=c1cc2cc(c1)Oc1ccc(cc1)CCc1ccccc1-c1ccc(cc1)CC2 censoringoperator== result=4.74
molecule=CC(C)c1cccc(C(C)C)c1N1C(=O)c2ccccc2C1=S censoringoperator== result=5.10
molecule=O=S(=O)(c1ccccc1)N(CC(F)(F)F)c1ccc(C(O)(C(F)(F)F)C(F)(F)F)cc1 censoringoperator== result=4.00

---

Target: Oxysterols receptor LXR-beta (Homo sapiens)
Sequence (P55055 whole entry): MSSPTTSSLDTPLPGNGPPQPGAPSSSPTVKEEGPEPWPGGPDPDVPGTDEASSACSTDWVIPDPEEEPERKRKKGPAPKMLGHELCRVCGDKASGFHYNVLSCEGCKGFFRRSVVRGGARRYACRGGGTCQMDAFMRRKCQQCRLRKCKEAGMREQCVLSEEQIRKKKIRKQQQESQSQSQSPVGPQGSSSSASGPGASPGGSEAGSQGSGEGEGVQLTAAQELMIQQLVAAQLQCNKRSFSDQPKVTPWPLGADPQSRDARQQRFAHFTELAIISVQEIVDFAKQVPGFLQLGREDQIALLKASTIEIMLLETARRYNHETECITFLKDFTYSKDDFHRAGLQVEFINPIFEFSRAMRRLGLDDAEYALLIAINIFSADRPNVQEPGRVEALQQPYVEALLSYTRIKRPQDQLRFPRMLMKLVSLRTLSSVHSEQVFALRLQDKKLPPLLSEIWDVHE
Test: Antagonist activity at human recombinant LXRbeta expressed in HEK293 cells by luciferase reporter gene assay
Items are presented alongside their recorded IC50.
quantityName: IC50

compound=COc1cc2ccc1-c1ccccc1CCc1ccc(cc1)Oc1cccc(c1)CC2 result="11 µM"
compound=COc1ccc2cc1Oc1ccc(cc1)CCc1ccccc1-c1ccc(cc1)CC2 result="41 µM"
compound="Oc1ccc2c(c1)CCc1ccc(cc1)Oc1cc(ccc1O)CCc1ccc-2c(O)c1 [RICCARDI C]" result="6.6 µM"
compound=Oc1ccc2cc1Oc1ccc(cc1)CCc1ccccc1-c1ccc(cc1)CC2 result="14 µM"
compound=COc1ccc2cc1Oc1ccc(cc1)CCc1ccccc1-c1ccc(cc1OC)CC2 result="12 µM"
compound="O=c1c(-c2ccc(O)cc2)coc2cc(O)cc(O)c12 [GENISTEIN]" result="22 µM"
